Data origin: ChEMBL document CHEMBL1139297

- Tested on: BT-474
- Assay Text: Antiproliferative activity against human BT474 cells overexpressing ERBb2 after 3 days by methylene blue staining
- Assay type: functional, cell-based
- Stated Conditions: BT-474, 72 h
I'd appreciate it if you could label each record using EC50 and these ranges: bottom end (below 30 nM), midrange (30 nM to below 90 nM), top end (90 nM or more)

Previously resolved entries follow.
>>> class_assignment("O=C(O[C@H]1CN[C@H](C#Cc2cc3ncnc(Nc4ccc(OCc5cccc(F)c5)c(Cl)c4)c3s2)C1)N1CCCC1")
"midrange"
>>> class_assignment("CCNC(=O)O[C@@H]1CN[C@@H](C#Cc2cc3ncnc(Nc4ccc(OCc5cccc(F)c5)c(Cl)c4)c3s2)C1")
"midrange"
>>> class_assignment("CS(=O)(=O)CCNCc1ccc(-c2ccc3ncnc(Nc4ccc(OCc5cccc(F)c5)c(Cl)c4)c3c2)o1 [LAPATINIB DITOSYLATE]")
"bottom end"

Pick a category. Item: O=C(O[C@H]1CN[C@H](C#Cc2cc3ncnc(Nc4ccc(OCc5cccc(F)c5)c(Cl)c4)c3s2)C1)N1CCNCC1
top end

Kindly state the category for this compound: CS(=O)(=O)CCNC(=O)O[C@H]1CN[C@H](C#Cc2cc3ncnc(Nc4ccc(OCc5cccc(F)c5)c(Cl)c4)c3s2)C1
top end

Kindly identify the class of NC(=O)O[C@H]1CN[C@H](C#Cc2cc3ncnc(Nc4ccc(OCc5cccc(F)c5)c(Cl)c4)c3s2)C1 .
bottom end

Place this compound in its band: O=C(O[C@@H]1CN[C@@H](C#Cc2cc3ncnc(Nc4ccc(OCc5cccc(F)c5)c(Cl)c4)c3s2)C1)N1CCOCC1
midrange

Lab note: which band did CCNC(=O)O[C@H]1CN[C@@H](C#Cc2cc3ncnc(Nc4ccc(OCc5cccc(F)c5)c(Cl)c4)c3s2)C1 land in?
bottom end

Hello team, could you let me know which band the following compound falls into: CCN(CC)C(=O)O[C@H]1CN[C@H](C#Cc2cc3ncnc(Nc4ccc(OCc5cccc(F)c5)c(Cl)c4)c3s2)C1
midrange

Band for the recorded EC50 of CN(C)C(=O)O[C@@H]1CN[C@H](C#Cc2cc3ncnc(Nc4ccc(OCc5cccc(F)c5)c(Cl)c4)c3s2)C1 ?
top end

Category of O=C(O[C@H]1CN[C@@H](C#Cc2cc3ncnc(Nc4ccc(OCc5cccc(F)c5)c(Cl)c4)c3s2)C1)N1CCOCC1 , please.
top end

Bin? CN(C)C(=O)O[C@H]1CN[C@@H](C#Cc2cc3ncnc(Nc4ccc(OCc5cccc(F)c5)c(Cl)c4)c3s2)C1
bottom end

----------
- Experimental Target: Receptor tyrosine-protein kinase erbB-2 (Homo sapiens, UniProt P04626)
- Sequence (P04626 whole entry): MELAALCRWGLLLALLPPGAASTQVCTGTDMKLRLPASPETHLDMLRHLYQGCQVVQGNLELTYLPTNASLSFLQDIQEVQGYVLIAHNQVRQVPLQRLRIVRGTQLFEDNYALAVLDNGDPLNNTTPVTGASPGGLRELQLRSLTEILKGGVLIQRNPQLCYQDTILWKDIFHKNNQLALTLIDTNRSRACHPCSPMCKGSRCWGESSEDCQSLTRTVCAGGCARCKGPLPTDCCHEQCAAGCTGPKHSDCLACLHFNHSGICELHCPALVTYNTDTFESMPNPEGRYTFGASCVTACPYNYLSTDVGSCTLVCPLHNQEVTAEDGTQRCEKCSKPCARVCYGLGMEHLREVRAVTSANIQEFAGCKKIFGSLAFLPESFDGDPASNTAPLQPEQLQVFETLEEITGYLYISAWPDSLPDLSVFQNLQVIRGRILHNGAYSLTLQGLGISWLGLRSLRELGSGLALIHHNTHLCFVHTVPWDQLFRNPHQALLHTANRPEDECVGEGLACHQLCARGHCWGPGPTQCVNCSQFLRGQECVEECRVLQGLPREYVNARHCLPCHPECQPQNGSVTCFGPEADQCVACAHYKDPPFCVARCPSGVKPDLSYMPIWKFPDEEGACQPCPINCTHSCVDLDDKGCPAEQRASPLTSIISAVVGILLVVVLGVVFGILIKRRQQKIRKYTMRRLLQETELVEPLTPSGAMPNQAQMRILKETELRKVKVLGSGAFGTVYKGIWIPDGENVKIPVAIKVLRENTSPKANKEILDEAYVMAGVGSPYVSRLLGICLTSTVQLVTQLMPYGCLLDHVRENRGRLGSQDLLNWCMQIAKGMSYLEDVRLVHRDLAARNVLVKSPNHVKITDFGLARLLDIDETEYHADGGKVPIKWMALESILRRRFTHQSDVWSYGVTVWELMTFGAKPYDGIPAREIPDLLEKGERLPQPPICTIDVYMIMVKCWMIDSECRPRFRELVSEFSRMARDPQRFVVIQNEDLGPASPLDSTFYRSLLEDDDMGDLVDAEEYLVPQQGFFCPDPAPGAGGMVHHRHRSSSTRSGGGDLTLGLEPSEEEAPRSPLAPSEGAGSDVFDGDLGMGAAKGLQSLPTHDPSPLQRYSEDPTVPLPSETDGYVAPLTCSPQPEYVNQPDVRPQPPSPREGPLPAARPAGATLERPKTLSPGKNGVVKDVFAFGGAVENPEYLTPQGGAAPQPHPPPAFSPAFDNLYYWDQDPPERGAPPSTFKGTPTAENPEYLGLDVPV
- Assay Text: Inhibition of ERBb2 by scintillation proximity assay
Reported Metric: IC50 (nM)
Kindly answer with a numeric value in nM, unit omitted.

>>> recorded_result("O=C(O[C@H]1CN[C@H](C#Cc2cc3ncnc(Nc4ccc(OCc5cccc(F)c5)c(Cl)c4)c3s2)C1)N1CCCC1")
32

Now for another entry.
What value of measured IC50 is listed for CCN(CC)C(=O)O[C@H]1CN[C@H](C#Cc2cc3ncnc(Nc4ccc(OCc5cccc(F)c5)c(Cl)c4)c3s2)C1 ?
50

----------
- Experimental Target: Epidermal growth factor receptor (Homo sapiens, UniProt P00533)
- Sequence (P00533 whole entry): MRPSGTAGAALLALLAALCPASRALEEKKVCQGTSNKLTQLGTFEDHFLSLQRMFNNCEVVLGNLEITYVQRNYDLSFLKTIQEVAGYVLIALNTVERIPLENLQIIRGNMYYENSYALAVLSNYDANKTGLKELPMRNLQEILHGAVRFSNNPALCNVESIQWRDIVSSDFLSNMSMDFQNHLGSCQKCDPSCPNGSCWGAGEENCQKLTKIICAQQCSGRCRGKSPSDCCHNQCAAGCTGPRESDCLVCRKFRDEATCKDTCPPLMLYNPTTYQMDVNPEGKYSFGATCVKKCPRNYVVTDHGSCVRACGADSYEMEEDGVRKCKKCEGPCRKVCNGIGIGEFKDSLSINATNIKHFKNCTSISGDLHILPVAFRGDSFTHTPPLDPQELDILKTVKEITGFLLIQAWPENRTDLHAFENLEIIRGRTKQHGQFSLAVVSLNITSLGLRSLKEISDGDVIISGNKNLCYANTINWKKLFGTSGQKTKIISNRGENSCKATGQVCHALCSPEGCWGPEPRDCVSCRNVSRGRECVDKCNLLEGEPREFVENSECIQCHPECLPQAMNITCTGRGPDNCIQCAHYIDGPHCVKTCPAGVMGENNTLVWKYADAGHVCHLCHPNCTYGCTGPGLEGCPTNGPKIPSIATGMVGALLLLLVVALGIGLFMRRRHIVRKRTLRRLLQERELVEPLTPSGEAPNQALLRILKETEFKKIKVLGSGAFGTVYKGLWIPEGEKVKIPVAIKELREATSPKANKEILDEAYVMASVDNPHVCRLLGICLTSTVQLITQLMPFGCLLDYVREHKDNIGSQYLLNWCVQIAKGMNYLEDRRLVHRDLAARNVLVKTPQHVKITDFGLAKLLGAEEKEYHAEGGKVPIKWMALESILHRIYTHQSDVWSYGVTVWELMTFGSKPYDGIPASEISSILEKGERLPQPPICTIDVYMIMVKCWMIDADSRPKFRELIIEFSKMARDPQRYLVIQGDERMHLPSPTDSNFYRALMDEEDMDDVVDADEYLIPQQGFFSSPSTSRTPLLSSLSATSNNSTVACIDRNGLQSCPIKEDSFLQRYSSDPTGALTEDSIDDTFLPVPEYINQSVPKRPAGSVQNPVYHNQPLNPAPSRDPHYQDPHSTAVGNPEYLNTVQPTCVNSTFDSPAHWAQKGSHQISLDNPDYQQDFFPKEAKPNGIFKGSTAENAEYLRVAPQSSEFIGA
- Assay Text: Inhibition of EGFR by scintillation proximity assay
Reported Metric: IC50 (nM)
Response body: numeric value in nM, unit text excluded.

>>> recorded_result("CCN(CC)C(=O)O[C@H]1CN[C@H](C#Cc2cc3ncnc(Nc4ccc(OCc5cccc(F)c5)c(Cl)c4)c3s2)C1")
63

Below: the item to evaluate.
Reported IC50, compound O=C(O[C@H]1CN[C@H](C#Cc2cc3ncnc(Nc4ccc(OCc5cccc(F)c5)c(Cl)c4)c3s2)C1)N1CCCC1 : ____
99
